Recorded measurements of melting point, one per entry

Known melting point results, listed for orientation:
- molecule: "Cc1oc(C(C)(C)C)nc1CCCOc1ccc(CC(OC(C)C)C(=O)O)c2ccccc12 (racemic)"
  melting point: "118 to 119 °C"
- molecule: "CCOC(Cc1ccc(OCCc2nc(CC)oc2C)c2ccsc12)C(=O)O (racemic)"
  melting point: "84 to 85 °C"
- molecule: "CCOC(Cc1ccc(OCc2nc(C(C)(C)C)oc2C)c2ccsc12)C(=O)O (stereo not shown)"
  melting point: "179 to 180 °C"

Task item: I am curious: what melting point value has been reported for CCOC(Cc1ccc(OCc2nc(C3CC3)oc2C)c2ccsc12)C(=O)O (stereo not shown) ?
Reply: 153 to 154 °C

* * *

Recorded measurements of pEC50, one per entry
Biological target: UniProt Q07869
Sequence (Q07869 167-468 limits assumed): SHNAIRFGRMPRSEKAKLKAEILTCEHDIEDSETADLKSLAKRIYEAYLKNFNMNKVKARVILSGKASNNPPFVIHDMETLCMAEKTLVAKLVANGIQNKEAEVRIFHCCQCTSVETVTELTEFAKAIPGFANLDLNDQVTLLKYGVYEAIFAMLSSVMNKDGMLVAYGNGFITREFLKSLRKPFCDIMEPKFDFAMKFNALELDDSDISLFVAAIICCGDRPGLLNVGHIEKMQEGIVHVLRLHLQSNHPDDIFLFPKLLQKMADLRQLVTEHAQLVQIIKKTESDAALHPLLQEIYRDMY
Test: Luciferase transcriptional reporter gene assay, BHK21 cells transfected with pFA-PPARα-LBD
Settings: Gal4-PPARα-LBD
As a rule, pEC50 stands for the negative log10 of the concentration, concentration in M.

- compound: "Cc1oc(C(C)(C)C)nc1CCOc1ccc(CC(OC(C)C)C(=O)O)c2sccc12 (stereo not shown) [Example 8]"
  pEC50: 7.57
- compound: "CCCOC(Cc1ccc(OCCc2nc(CC(C)(C)C)oc2C)c2ccccc12)C(=O)O (stereo not shown) [Example 33]"
  pEC50: 8.22
- compound: "CCO[C@@H](Cc1ccc(OCCc2nc(C(C)(C)C)oc2C)c2ccccc12)C(=O)O [Example 1]"
  pEC50: 7.46

Kindly consider the entry below.
Task item: Test system UniProt Q07869; read-out pEC50; what value for CCCOC(Cc1ccc(OCCc2nc(C3CC3)oc2C)c2ccsc12)C(=O)O (stereo not shown) [Example 31] ?
Reply: 7.21

* * *

Recorded measurements of melting point, one per entry

Known melting point results, listed for orientation:
- compound: "CCOC(Cc1ccc(OCc2nc(C(C)(C)C)oc2C)c2ccccc12)C(=O)O (stereo not shown) [Example 22]"
  melting point: "185 to 186 °C"
- compound: "Cc1oc(C2CC2)nc1COc1ccc(CC(OC(C)C)C(=O)O)c2ccccc12 (stereo not shown) [Example 40]"
  melting point: "129 to 130 °C"
- compound: "CCOC(Cc1ccc(OCCc2nc(C(CC)CC)oc2C)c2ccsc12)C(=O)O (racemic) [Example 68]"
  melting point: "120 to 121 °C"

Task item: I am curious: what melting point value has been reported for COC(Cc1ccc(OCCCc2nc(C(C)(C)C)oc2C)c2ccsc12)C(=O)O (racemic) [Example 58] ?
Reply: 110 to 113 °C

* * *

Target: PPARγ (Mus musculus, UniProt P37238)
Sequence (P37238 204-505): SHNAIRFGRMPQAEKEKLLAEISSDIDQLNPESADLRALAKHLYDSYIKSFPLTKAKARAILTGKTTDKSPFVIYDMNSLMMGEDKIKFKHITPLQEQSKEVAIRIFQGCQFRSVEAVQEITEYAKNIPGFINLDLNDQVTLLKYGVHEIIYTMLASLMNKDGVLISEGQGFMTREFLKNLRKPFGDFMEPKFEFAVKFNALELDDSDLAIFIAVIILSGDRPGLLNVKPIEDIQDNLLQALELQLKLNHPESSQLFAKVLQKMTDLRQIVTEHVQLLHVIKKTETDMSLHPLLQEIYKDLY
Assay: Luciferase transcriptional reporter gene assay, BHK21 cells transfected with pFA-PPARγ-LBD
Conditions: Gal4-PPARγ-LBD
parameter measured: EC50 (nM)
Please respond with the number in nM and leave the unit unwritten.

Known EC50 results, listed for orientation:
- compound: "CCO[C@@H](Cc1ccc(OCCc2nc(C(C)(C)C)oc2C)c2ccccc12)C(=O)O"
  study target: "PPARγ (Mus musculus, UniProt P37238)"
  data value: 237
- compound: "CCCOC(Cc1ccc(OCCc2nc(C3CC3)oc2C)c2ccsc12)C(=O)O (stereo not shown)"
  study target: "PPARγ (Mus musculus, UniProt P37238)"
  data value: 80
- compound: "Cc1oc(C(C)(C)C)nc1CCOc1ccc(CC(OC(C)C)C(=O)O)c2sccc12 (stereo not shown)"
  study target: "PPARγ (Mus musculus, UniProt P37238)"
  data value: 19

Kindly consider the entry below.
Task item: I am curious: what EC50 value has been reported for CCCOC(Cc1ccc(OCCc2nc(CC(C)(C)C)oc2C)c2ccccc12)C(=O)O (stereo not shown) ?
Reply: 67

* * *

parameter measured: melting point

Known melting point results, listed for orientation:
- compound: "CCCOC(Cc1ccc(OCCc2nc(C3CC3)oc2C)c2ccsc12)C(=O)O (centres unmarked)"
  melting point: "61 to 63 °C"
- compound: "CCOC(Cc1cc(C)c(OCCc2nc(C(C)(C)C)oc2C)c(C)c1)C(=O)O (centres unmarked)"
  melting point: "104 to 106 °C"
- compound: "CCO[C@@H](Cc1ccc(OCCc2nc(C(C)(C)C)oc2C)c2ccccc12)C(=O)O"
  melting point: "103 to 105 °C"
- compound: "COC(Cc1ccc(OCCc2nc(C(C)(C)C)oc2C)c2ccccc12)C(=O)O (centres unmarked)"
  melting point: "141 to 143 °C"
- compound: "Cc1oc(C(C)C)nc1CCCOc1ccc(CC(OC(C)C)C(=O)O)c2sccc12 (racemic)"
  melting point: "125 to 126 °C"

Task item: I am curious: what melting point value has been reported for Cc1oc(C(C)(C)C)nc1CCOc1ccc(CC(OC(C)C)C(=O)O)c2sccc12 (centres unmarked) ?
Reply: 159 to 160 °C

Task item: And the next one, Cc1oc(C2CC2)nc1COc1ccc(CC(OC(C)C)C(=O)O)c2sccc12 (centres unmarked) ?
Reply: 71 to 72 °C

Task item: And the next one, COC(Cc1ccc(OCCc2nc(C(C)(C)C)oc2C)c2ccsc12)C(=O)O (centres unmarked) ?
Reply: 163 to 165 °C
